- TARGET_OR_TEST_SYSTEM: human endothelial constitutive NOS (eNOS) (Homo sapiens (Human), UniProt P29474)
- ASSAY_INFO: Human eNOS enzyme assay, radiometric;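 also: recombinant human eNOS expressed in baculovirus-infected Sf9 cells, activity read as [3H]L-arginine turned into [3H]L-citrulline, the product isolated on ion-exchange resin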
- SETUP_CONDITIONS: read-out: eNOSh; Table II; human NOS; dihydrochloride or monohydrochloride salts
Measured IC50 of individual entries

- COMPOUND: "N=C(Nc1ccc2ccn(CCCN3CCOCC3)c2c1)c1ccco1"
  UNIT_DESCRIPTOR: "µM"
  IC50: 34
- COMPOUND: "CN(C)CCCn1ccc2ccc(NC(=N)c3cccs3)cc21 [Compound 157]"
  UNIT_DESCRIPTOR: "µM"
  IC50: 28.3
- COMPOUND: "N=C(Nc1ccc2ccn(CCCCn3ccnc3)c2c1)c1cccs1 [Compound 167]"
  UNIT_DESCRIPTOR: "µM"
  IC50: 4.56
- COMPOUND: "CN1CCC[C@H]1CCn1ccc2ccc(NC(=N)c3cccs3)cc21"
  UNIT_DESCRIPTOR: "µM"
  IC50: 24
- COMPOUND: "CCN(CC)CCCn1ccc2ccc(NC(=N)c3cccs3)cc21"
  UNIT_DESCRIPTOR: "µM"
  IC50: 10.2

====

- TARGET_OR_TEST_SYSTEM: bovine eNOS (Bos taurus (Bovine), UniProt P29473)
- ASSAY_INFO: Bovine eNOS hemoglobin capture assay
- Assay type: biochemical

- COMPOUND: "CN(C)CCc1c[nH]c2ccc(NC(=N)c3cccs3)cc12 [Compound 18]"
  TARGET_OR_TEST_SYSTEM: "bovine eNOS (Bos taurus (Bovine), UniProt P29473)"
  UNIT_DESCRIPTOR: "µM"
  IC50: 248

====

- TARGET_OR_TEST_SYSTEM: human neuronal constitutive NOS (nNOS) (Homo sapiens (Human), UniProt P29475)
- ASSAY_INFO: Human nNOS enzyme assay, radiometric [3H]L-arginine to [3H]L-citrulline;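 also: recombinant human nNOS expressed in baculovirus-infected Sf9 cells, enzyme activity measured radiometrically as turnover of [3H]L-arginine into [3H]L-citrulline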
- SETUP_CONDITIONS: read-out: nNOSh; Table II; human NOS; dihydrochloride or monohydrochloride salts
Recorded log10 of IC50 by entry
READOUT_TYPE: log10 of IC50 (log10 of the value in µM)

- MOLECULE: "CN(C)CCCn1ccc2ccc(NC(=N)c3cccs3)cc21 [Compound 160]"
  log10 of IC50: 0.44
- MOLECULE: "N=C(Nc1ccc2ccn(CCCN3CCOCC3)c2c1)c1ccco1 [Compound 183]"
  log10 of IC50: 0.38
- MOLECULE: "CN1CCCC1CCn1c(Cc2ccccc2)cc2ccc(NC(=N)c3cccs3)cc21 (centres unmarked) [Compound 162]"
  log10 of IC50: 0.36
- MOLECULE: "N=C(Nc1ccc2ccn(CCCCn3ccnc3)c2c1)c1cccs1 [Compound 168]"
  log10 of IC50: -0.59
- MOLECULE: "CN(C)CCCn1ccc2ccc(NC(=N)c3cccs3)cc21 [Compound 157]"
  log10 of IC50: -0.15

====

- TARGET_OR_TEST_SYSTEM: human neuronal constitutive NOS (nNOS) (Homo sapiens (Human))
- ASSAY_INFO: Human nNOS enzyme assay, radiometric [3H]L-arginine to [3H]L-citrulline
- SETUP_CONDITIONS: read-out: Human nNOS; Table 2b
# Lookup of reported log10(IC50) keyed by entry
READOUT_TYPE: log10(IC50) (log10 of the value in nM)

- MOLECULE: "N=C(Nc1ccc2ccn(CCc3ccccc3)c2c1)c1cccs1"
  TARGET_OR_TEST_SYSTEM: "human neuronal constitutive NOS (nNOS) (Homo sapiens (Human))"
  READOUT_TYPE: "log10(IC50)"
  RECORDED_NUMBER: 4.08
- MOLECULE: "CN1CCCC1CCn1ccc2ccc(NC(=N)c3cccs3)cc21 (stereo not drawn) [32(−)]"
  TARGET_OR_TEST_SYSTEM: "human neuronal constitutive NOS (nNOS) (Homo sapiens (Human))"
  READOUT_TYPE: "log10(IC50)"
  RECORDED_NUMBER: 2.30
- MOLECULE: "CN1CCCC1CCn1ccc2ccc(NC(=N)c3cccs3)cc21 (stereo not drawn) [32(+)]"
  TARGET_OR_TEST_SYSTEM: "human neuronal constitutive NOS (nNOS) (Homo sapiens (Human))"
  READOUT_TYPE: "log10(IC50)"
  RECORDED_NUMBER: 2.51
- MOLECULE: "CN(C)CCc1c[nH]c2ccc(NC(=N)c3cccs3)cc12"
  TARGET_OR_TEST_SYSTEM: "human neuronal constitutive NOS (nNOS) (Homo sapiens (Human))"
  READOUT_TYPE: "log10(IC50)"
  RECORDED_NUMBER: 3.41
- MOLECULE: "N=C(Nc1ccc2ccn(CCN3CCCCC3)c2c1)c1cccs1"
  TARGET_OR_TEST_SYSTEM: "human neuronal constitutive NOS (nNOS) (Homo sapiens (Human))"
  READOUT_TYPE: "log10(IC50)"
  RECORDED_NUMBER: 2.69
